B1: CHIT1 (parent)
chain: CSWKGATKQRIQDQKVPYIFRDNQ

- Variants of: B1
- test_summary: protein stability index of a GFP-peptide fusion (GPS, HEK-293T) (PSI 1-6); higher = more stable;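 further: lentivirally expressed fusions sorted by FACS into six bins by GFP to DsRed ratio, PSI derived from sequencing read proportions per bin multiplied by bin number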
- conditions: c terminus: a fixed tail appended
experimental_endpoint: protein stability index

• CSWKGATKQRIPDQKVPYIFRDNQ = 2.78
• CSWIGATKQRIQDQKVPYIFRDNQ = 2.04
• CSWKGAYKQRIQDQKVPYIFRDNQ = 3.94
• CSWKGATKQVIQDQKVPYIFRDNQ = 2.43
• CSWKGATKQRIQDVKVPYIFRDNQ = 1.94
• CSWKGATNQRIQDQKVPYIFRDNQ = 2.54
• CSWKGATKQTIQDQKVPYIFRDNQ = 3.68
• CSWKGATKQRIQDQKVPYIFDDNQ = 3.49
• CSWKGATKQRIQDQKVPYYFRDNQ = 1.95
• CSWKGATKQRIQDQHVPYIFRDNQ = 2.26
• CSWKIATKQRIQDQKVPYIFRDNQ = 2.11
• CSWKGATTQRIQDQKVPYIFRDNQ = 2.07
• CVWKGATKQRIQDQKVPYIFRDNQ = 1.85
• CSWKGATKQRIQDQKVPYRFRDNQ = 3.28
• CSWKGATKFRIQDQKVPYIFRDNQ = 1.94
• GSWKGATKQRIQDQKVPYIFRDNQ = 3.47
